Sourced from patent US20170226203A1

- target system: human Orai1 (human, UniProt Q96D31 1-301)
- Sequence (Q96D31 whole entry): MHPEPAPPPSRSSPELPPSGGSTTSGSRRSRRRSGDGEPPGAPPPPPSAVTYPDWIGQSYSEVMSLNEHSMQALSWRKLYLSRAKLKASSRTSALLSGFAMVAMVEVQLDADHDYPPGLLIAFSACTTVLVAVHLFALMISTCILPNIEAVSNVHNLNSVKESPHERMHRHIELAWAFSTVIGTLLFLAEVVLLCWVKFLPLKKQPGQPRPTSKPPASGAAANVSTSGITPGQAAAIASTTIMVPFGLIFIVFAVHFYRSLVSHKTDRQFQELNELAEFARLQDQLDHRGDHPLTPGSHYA
- assay name: cell-based or functional assay
readout label: IC80, IL-2 release from Jurkat cells treated with PMA and A23187

binder="human anti-human Orai1 antibody 2C1.1 (antibody, human IgG2, lambda, V domains shown) VH: QVQLQQWGAGLLKPSETLSLTCAVYGGSFSGYYWSWIRQPPGKGLEWIGEIDHSGSTNYNPALKSRLTISVDTSKNQFSLKLSSVTAADTAVYYCARAGSGGYEDWFDPWGQGTLVTVSS VL: QSVLTQPPSVSGAPGQRVTISCTGSSSNIGAGYNVHWYQQFPRTDPKLLIYVYNIRPSGVPDRFSGSRSGTSASLAITGLQTEDEADYYCQSYDSSLSGVVFGGGTKLTVLG" meas_value="≥ 60 µg/mL"
